Can you tell me MIC for the items I'm about to list?
Tested on: Staphylococcus aureus
ASSAY: Antibacterial activity against methicillin-resistant Staphylococcus aureus clinical isolate ATCC10105 incubated for 18 to 20 hrs by double dilution method
Format: functional
CONDITION CONTEXT: time 18-20 hrs
Expressed in µM, but write only the number.

Quick one: MIC for O=C(Nc1ccc(F)c(F)c1)Nc1ccc(Sc2nc3cc(Cl)ccc3s2)c(Cl)c1 ?
0.78

Quick one: MIC for O=C(Nc1ccc(Sc2nc3ccccc3s2)cc1)Nc1ccc(C(F)(F)F)cc1 ?
0.39

Quick one: MIC for O=C(Nc1ccc(Sc2nc3ccccc3s2)cc1)Nc1ccc(F)c(F)c1 ?
1.56
